Each recorded value in this set is attributed to ChEMBL document CHEMBL5291721.

Target: Adenosine receptor A1 (Homo sapiens); further: assay procedure not described here
Sequence (P30542 whole entry): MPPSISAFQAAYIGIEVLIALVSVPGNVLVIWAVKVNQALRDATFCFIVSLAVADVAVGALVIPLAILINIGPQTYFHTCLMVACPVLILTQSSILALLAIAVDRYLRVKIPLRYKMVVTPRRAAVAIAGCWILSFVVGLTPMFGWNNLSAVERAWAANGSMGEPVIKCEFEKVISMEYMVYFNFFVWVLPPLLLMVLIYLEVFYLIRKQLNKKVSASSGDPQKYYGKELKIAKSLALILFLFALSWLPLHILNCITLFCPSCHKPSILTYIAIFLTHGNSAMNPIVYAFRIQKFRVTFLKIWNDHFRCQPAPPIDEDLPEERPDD
Parameter AC50: see the listing below.

COMPOUND	AC50
C[C@@H]1C[C@H]2[C@@H]3C[C@H](F)C4=CC(=O)C=C[C@]4(C)[C@@]3(F)[C@@H](O)C[C@]2(C)[C@@]1(OC(=O)c1ccco1)C(=O)SCF [FLUTICASONE FUROATE]	> 30 µM
COC(=O)C[C@](O)(CCCC(C)(C)O)C(=O)O[C@@H]1C(OC)=C[C@]23CCCN2CCc2cc4c(cc2[C@H]13)OCO4 [OMACETAXINE MEPESUCCINATE]	> 30 µM
O=C1Cc2cc(CCN3CCN(c4nsc5ccccc45)CC3)c(Cl)cc2N1	> 30 µM
